target: Glucose-dependent insulinotropic receptor (Mus musculus); experiment: Agonist activity at mouse GPR119 by cAMP assay
Sequence (Q7TQP3 whole entry): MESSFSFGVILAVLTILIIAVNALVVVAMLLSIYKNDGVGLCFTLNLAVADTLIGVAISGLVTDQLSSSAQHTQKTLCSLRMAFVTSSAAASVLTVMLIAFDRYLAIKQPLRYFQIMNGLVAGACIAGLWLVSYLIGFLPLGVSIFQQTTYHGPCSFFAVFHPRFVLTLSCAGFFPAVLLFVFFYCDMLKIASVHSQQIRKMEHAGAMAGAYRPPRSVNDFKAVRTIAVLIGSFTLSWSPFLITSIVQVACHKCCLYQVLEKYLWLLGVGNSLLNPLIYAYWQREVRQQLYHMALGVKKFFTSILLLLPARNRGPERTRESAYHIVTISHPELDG
pEC50: −log10 of the molar value.
measurementName: pEC50

Here are 4 compounds together with their reported answers.
Let me check: CC(C)c1noc(N2CCC([C@H]3C[C@H]3COCc3ccc(-n4cnnn4)cc3F)CC2)n1 , system Glucose-dependent insulinotropic receptor (Mus musculus), measured pEC50 is 8.32

Query COCc1cnc(N2CCC([C@H]3C[C@H]3COCc3ccc(-n4cnnn4)c(F)c3)CC2)nc1 on Glucose-dependent insulinotropic receptor (Mus musculus); pEC50 returned: 8.42

Response field pEC50 (Glucose-dependent insulinotropic receptor (Mus musculus)) for item CCc1cnc(N2CCC([C@H]3C[C@H]3COCc3ccc(S(C)(=O)=O)cn3)CC2)nc1 : 8.60

Bench note, Glucose-dependent insulinotropic receptor (Mus musculus): COC(C)c1cnc(N2CCC([C@H]3C[C@H]3COCc3ccc(S(C)(=O)=O)cc3F)CC2)nc1 (stereo in doubt; 29) , pEC50 reads 8.05

a. COC(C)c1cnc(N2CCC([C@H]3C[C@H]3COCc3ccc(S(C)(=O)=O)cc3F)CC2)nc1 (stereo in doubt; 30)
b. COCc1cnc(N2CCC([C@H]3C[C@H]3COCc3ccc(S(C)(=O)=O)cc3F)CC2)nc1
c. CCS(=O)(=O)c1ccc(COC[C@@H]2C[C@@H]2C2CCN(c3ncc(COC)cn3)CC2)c(F)c1
d. COCc1cnc(N2CCC([C@H]3C[C@H]3COCc3ccc(S(C)(=O)=O)c(F)c3)CC2)nc1
List items by pEC50 in falling order. // ordering of labels required in reply
b, a, d, c
(b: 8.72, a: 8.48, d: 8.28, c: 7.90)
